# TARGET_OR_SYSTEM: Follistatin (Homo sapiens) (UniProt P19883)
# Sequence (P19883 whole entry, looked up): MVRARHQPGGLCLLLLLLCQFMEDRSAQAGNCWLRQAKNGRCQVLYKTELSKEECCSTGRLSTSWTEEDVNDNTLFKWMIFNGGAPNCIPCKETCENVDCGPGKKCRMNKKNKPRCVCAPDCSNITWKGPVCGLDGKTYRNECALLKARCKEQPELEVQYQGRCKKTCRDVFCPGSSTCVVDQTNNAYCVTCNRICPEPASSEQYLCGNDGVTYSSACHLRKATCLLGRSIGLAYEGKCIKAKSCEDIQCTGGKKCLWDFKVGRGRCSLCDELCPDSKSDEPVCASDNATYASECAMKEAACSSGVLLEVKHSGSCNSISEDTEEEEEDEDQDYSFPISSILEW
# PROCEDURE_SUMMARY: follistatin binders on small-molecule microarrays, primary screen, biochemical, small-molecule microarray, 635/667 nm fluorescence (AID 1132)
# RECORDED_CONDITIONS: FST binding, 635 nm fluorescence, higher = more signal
METRIC_NAME: composite z-score
Answer as a number with no unit attached.

Here are 3 molecules together with their reported answers.
[
  {
    "MOLECULE": "Cc1ccc(S(=O)(=O)c2cc3oc2CC[C@@H](CO)NC(=O)N(C)Cc2cn(nn2)C[C@H](Cc2ccccc2)NC3=O)cc1",
    "EXPERIMENTAL_VALUE": -0.0009
  },
  {
    "MOLECULE": "C=CCC(OC(C)=O)[C@@H]1[C@@H](N(Cc2ccc(-c3ccccc3)cc2)C(=O)c2ccc(-c3ccccc3)cc2)c2cc(OCCCO)ccc2N1C(=O)Cc1ccc(OC)cc1 (some centres not stated)",
    "EXPERIMENTAL_VALUE": 0.856
  },
  {
    "MOLECULE": "CN(C)c1ccc(C(O)C2C=CC3C(=O)NC(=O)C3N2Nc2ccc(Cl)cc2Cl)cc1 (configuration not stated)",
    "EXPERIMENTAL_VALUE": 1.16
  }
]

get_value(item= C=CC[C@]1(C(=O)NCC(O)CO)N=C(c2ccc(OCCCO)cc2)O[C@H]1c1ccccc1 (some centres not stated) , readout=composite z-score) returns -0.307

get_value(item= C[C@@H]1CC[C@H]2C(=O)N3[C@@H](CC[C@@H](C)[C@@H]3c3cccc(N4CCOCC4)c3)C(=O)N2[C@H]1c1cccc(Br)c1 , readout=composite z-score) returns 1.12

get_value(item= CC(C)NC(=O)[C@@]1(Cc2ccccc2I)c2ccccc2C(=O)N(C2CCCCC2)[C@H]1c1ccc(CO)cc1 , readout=composite z-score) returns 1.17

get_value(item= CO[C@@H]1COC(=O)[C@H](COCc2ccccc2)NC(=O)CC=C[C@@H](C)[C@H](OC)COC(=O)[C@H](COCc2ccccc2)NC(=O)CC=C[C@H]1C , readout=composite z-score) returns 0.59

----------
# PROCEDURE_SUMMARY: binders of probe aFSTL3 on microarray, primary screen, stem cell growth factor project, biochemical, small-molecule microarray, fluorescence 635/667 (AID 1064);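 further: measures binding of the biotinylated anti-FSTL3 antibody to printed compounds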
# RECORDED_CONDITIONS: higher = more signal
METRIC_NAME: composite z-score
Answer as a number with no unit attached.

Here are 3 molecules together with their reported answers.
[
  {
    "COMPOUND_STRING": "Cc1ccc(S[C@]2(C(=O)NC3CC3)CC(=O)N(Cc3cc(C(F)(F)F)cc(C(F)(F)F)c3)[C@@H]2c2ccc(CO)cc2)cc1",
    "composite z-score": -0.293
  },
  {
    "COMPOUND_STRING": "CC(C)C[C@@H]1NC(=O)[C@H]2C[C@@H](C(=O)NCCCCCC[N+](C)(C)C)[C@@H](c3ccc(O)cc3)N2C1=O",
    "composite z-score": -0.332
  },
  {
    "COMPOUND_STRING": "COc1ccc(CCN2C(=O)[C@@]3(c4ccc([N+](=O)[O-])cc4)CC(=O)N(CC45CC6CC(CC(C6)C4)C5)[C@@H]3c3ccc(CO)cc32)cc1",
    "composite z-score": 0.188
  }
]

get_value(item= Cc1ccc(N2C(=O)c3ccccc3[C@](C)(C(=O)NCC(C)C)[C@@H]2c2ccc(CO)cc2)nc1 , readout=composite z-score) returns 0.572
